- Target of assay: Nuclear receptor subfamily 4 group A member 2 (Homo sapiens)
- Assay text: ATG_NURR1_TRANS: Attagene TRANS-FACTORIAL HepG2 Assay for human Nuclear Receptor Related Protein 1 (NURR1) (AID 2282985)
- Condition details: HepG2 Attagene TRANS reporter, mRNA readout
Results filed as inconclusive are left out. Activity calls are given as the source filed them. Rule for the calls: active = hit-call score of the fitted dose curve at least 0.9, where 1 is the maximum; inconclusive = response in the unintended direction; inactive = score below 0.9.
Output constraint: value belongs to t = active, f = inactive

Solved cases below.
[[record]]
smiles_str = "CCOP(=O)(OCC)OC(=CCl)c1ccc(Cl)cc1Cl"
target_of_assay = "Nuclear receptor subfamily 4 group A member 2 (Homo sapiens)"
class_assignment = "t"

[[record]]
smiles_str = "O=S(=O)(c1ccc(Cl)cc1)c1cc(Cl)c(Cl)cc1Cl"
target_of_assay = "Nuclear receptor subfamily 4 group A member 2 (Homo sapiens)"
class_assignment = "f"

[[record]]
smiles_str = "CNC(=O)CSP(=O)(OC)OC"
target_of_assay = "Nuclear receptor subfamily 4 group A member 2 (Homo sapiens)"
class_assignment = "f"

[[record]]
smiles_str = "O=c1nc(O)n(Cl)c(=O)n1Cl"
target_of_assay = "Nuclear receptor subfamily 4 group A member 2 (Homo sapiens)"
class_assignment = "f"


Recorded test call requested for CCN(CCO)CCO
f

// return assay outcome for CCCCS(=O)(=O)Cl
f

Identify the outcome logged in this assay for the molecule shown: CC(C)(C)c1cc([N+](=O)[O-])cc(C(C)(C)C)c1O
t
